test.system: T1, human C1s (human, UniProt P09871 16-688)
T1 construct: also called hC1s; serum-derived human C1s (CompTech)
T1 sequence: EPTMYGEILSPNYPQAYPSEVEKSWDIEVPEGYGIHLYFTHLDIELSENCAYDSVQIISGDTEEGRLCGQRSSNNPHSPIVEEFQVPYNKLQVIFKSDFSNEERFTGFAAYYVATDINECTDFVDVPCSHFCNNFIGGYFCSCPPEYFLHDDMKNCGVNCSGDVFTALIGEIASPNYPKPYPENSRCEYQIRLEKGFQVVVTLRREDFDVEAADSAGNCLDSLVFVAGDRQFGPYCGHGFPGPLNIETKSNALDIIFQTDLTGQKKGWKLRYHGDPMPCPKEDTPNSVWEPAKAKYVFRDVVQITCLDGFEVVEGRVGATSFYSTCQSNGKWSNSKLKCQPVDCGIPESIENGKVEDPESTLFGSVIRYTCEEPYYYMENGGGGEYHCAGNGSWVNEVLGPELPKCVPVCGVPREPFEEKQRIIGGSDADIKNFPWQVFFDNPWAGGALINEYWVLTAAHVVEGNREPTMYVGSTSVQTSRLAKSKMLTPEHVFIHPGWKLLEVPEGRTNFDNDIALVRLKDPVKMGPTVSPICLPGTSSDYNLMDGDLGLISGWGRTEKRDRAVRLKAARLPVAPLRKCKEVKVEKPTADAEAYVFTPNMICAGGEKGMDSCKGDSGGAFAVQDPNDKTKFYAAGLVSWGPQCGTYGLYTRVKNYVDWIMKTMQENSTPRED
assay.comment: SPR, Ab captured; pH 7.4, 1.2 mM Ca
outcome.measure: pKd
Answers are plain numbers, as −log10 of the molar value.

C1_IPN92H0160-SG4GK/IPN93L0024-SK1 (antibody, human IgG4 S228P, kappa, name in Kabat numbering, V domains shown, also called IPN92H0160/IPN93L0024) VH: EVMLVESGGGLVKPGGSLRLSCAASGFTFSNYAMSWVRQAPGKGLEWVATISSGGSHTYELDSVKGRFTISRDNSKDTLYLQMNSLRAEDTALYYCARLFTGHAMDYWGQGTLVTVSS VL: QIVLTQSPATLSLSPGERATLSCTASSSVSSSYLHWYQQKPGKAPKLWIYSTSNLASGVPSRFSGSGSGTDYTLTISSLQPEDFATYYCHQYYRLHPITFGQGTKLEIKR :: 8.82

# next binder below
stdin: For the binder C1_IPN92H0157-SG4GK/IPN93L0024-SK1 (antibody, human IgG4 S228P, kappa, name in Kabat numbering, V domains shown, also called IPN92H0157/IPN93L0024) VH: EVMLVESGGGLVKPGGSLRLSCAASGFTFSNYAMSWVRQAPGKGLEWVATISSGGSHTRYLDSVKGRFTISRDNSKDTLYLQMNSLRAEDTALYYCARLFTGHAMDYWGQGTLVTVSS VL: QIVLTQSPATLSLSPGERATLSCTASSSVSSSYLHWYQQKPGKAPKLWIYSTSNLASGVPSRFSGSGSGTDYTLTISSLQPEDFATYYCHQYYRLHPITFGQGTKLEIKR , what pKd is on record?
stdout: 8.69
